# Test system: PC-3 multi-cell spheroids, viability
# ASSAY TEXT: Anticancer human tumor PC-3 cell line growth inhibition [IpAb]
# EXPERIMENTAL CONDITIONS: second compound 1 µM; first compound 0.00949 µM; active compounds read low
PARAMETER: viability, T/C (%)
Report the figure in % without appending any unit label.

[[record]]
compound = "CC(=O)c1c(C)c2cnc(Nc3ccc(N4CCNCC4)cn3)nc2n(C2CCCC2)c1=O + CCN1CCN(Cc2ccc(Nc3ncc(F)c(-c4cc(F)c5nc(C)n(C(C)C)c5c4)n3)nc2)CC1"
endpoint_unit = "%"
result_number = 57.3

[[record]]
compound = "CC(C)(C)c1cnc(CSc2cnc(NC(=O)C3CCNCC3)s2)o1 + CC(C)NCC(C(=O)N1CCN(c2ncnc3c2C(C)CC3O)CC1)c1ccc(Cl)cc1"
endpoint_unit = "%"
result_number = 31.3

[[record]]
compound = "CC(C)(C)c1cnc(CSc2cnc(NC(=O)C3CCNCC3)s2)o1 + CCN1CCN(Cc2ccc(Nc3ncc(F)c(-c4cc(F)c5nc(C)n(C(C)C)c5c4)n3)nc2)CC1"
endpoint_unit = "%"
result_number = 44.7


Any idea what viability, T/C was measured for Cn1cnc2c(F)c(Nc3ccc(Br)cc3Cl)c(C(=O)NOCCO)cc21 + CCN1CCN(Cc2ccc(Nc3ncc(F)c(-c4cc(F)c5nc(C)n(C(C)C)c5c4)n3)nc2)CC1 ?
53.2

Item Cn1cnc2c(F)c(Nc3ccc(Br)cc3Cl)c(C(=O)NOCCO)cc21 + CC(C)NCC(C(=O)N1CCN(c2ncnc3c2C(C)CC3O)CC1)c1ccc(Cl)cc1 has what recorded viability, T/C?
25.6

Quick check: viability, T/C of CC(=O)c1c(C)c2cnc(Nc3ccc(N4CCNCC4)cn3)nc2n(C2CCCC2)c1=O + CC(C)NCC(C(=O)N1CCN(c2ncnc3c2C(C)CC3O)CC1)c1ccc(Cl)cc1 ?
19.6

====

# Test system: PC-3 multi-cell spheroids, viability
# ASSAY TEXT: Anticancer human tumor PC-3 cell line growth inhibition [IpAb]; active = viability on the fitted dose curve at most 10% of control; inactive = the rest
# EXPERIMENTAL CONDITIONS: second compound 3.16 µM; first compound 0.1 µM
Can you answer with just one of these options? active, inactive

[[record]]
molecule = "COc1c(OCCCN2CCOCC2)ccc2c3n(c(=NC(=O)c4cnc(N)nc4)nc12)CCN3 + CC(C)NCC(C(=O)N1CCN(c2ncnc3c2C(C)CC3O)CC1)c1ccc(Cl)cc1"
class = "active"


// param item: Cn1nccc1Nc1nccc(-c2ccn(C(CO)c3ccc(Cl)c(F)c3)c(=O)c2)n1 (stereo not given) + CC(C)NCC(C(=O)N1CCN(c2ncnc3c2C(C)CC3O)CC1)c1ccc(Cl)cc1 ; yields the recorded call
inactive

What call does the record list for C=CCn1c(=O)c2cnc(Nc3ccc(N4CCN(C)CC4)cc3)nc2n1-c1cccc(C(C)(C)O)n1 + CC(C)NCC(C(=O)N1CCN(c2ncnc3c2C(C)CC3O)CC1)c1ccc(Cl)cc1 ?
inactive

// return assay outcome for Cc1nc(NC(=O)N2CCCC2C(N)=O)sc1-c1ccnc(C(C)(C)C(F)(F)F)c1 (stereo not given) + CC(C)NCC(C(=O)N1CCN(c2ncnc3c2C(C)CC3O)CC1)c1ccc(Cl)cc1
inactive

Dear colleague, could you share the recorded outcome for Cn1ncnc1[C@H]1c2n[nH]c(=O)c3cc(F)cc(c23)N[C@@H]1c1ccc(F)cc1 + CC(C)NCC(C(=O)N1CCN(c2ncnc3c2C(C)CC3O)CC1)c1ccc(Cl)cc1 when you have a moment?
inactive

====

# System: PC-3 multi-cell spheroids, viability
# ASSAY TEXT: Anticancer human tumor PC-3 cell line growth inhibition [IpAb];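 note: spheroids exposed to compounds for 7 days before readout; 100% = DMSO vehicle control wells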
# EXPERIMENTAL CONDITIONS: second compound 0.316 µM; first compound 3.16 µM; active compounds read low
PARAMETER: viability, T/C (%)
Respond numerically; units are % and should not be typed.

Solved cases below.
[[record]]
compound = "Cn1nccc1Nc1nccc(-c2ccn(C(CO)c3ccc(Cl)c(F)c3)c(=O)c2)n1 (centres undefined) + CCN1CCN(Cc2ccc(Nc3ncc(F)c(-c4cc(F)c5nc(C)n(C(C)C)c5c4)n3)nc2)CC1"
parameter = "viability, T/C"
endpoint_unit = "%"
result_number = 72.9

[[record]]
compound = "CCCS(=O)(=O)Nc1ccc(F)c(C(=O)c2c[nH]c3ncc(-c4ccc(Cl)cc4)cc23)c1F + CC(C)NCC(C(=O)N1CCN(c2ncnc3c2C(C)CC3O)CC1)c1ccc(Cl)cc1"
parameter = "viability, T/C"
endpoint_unit = "%"
result_number = 50.3

[[record]]
compound = "Cn1nccc1Nc1nccc(-c2ccn(C(CO)c3ccc(Cl)c(F)c3)c(=O)c2)n1 (centres undefined) + CC(C)NCC(C(=O)N1CCN(c2ncnc3c2C(C)CC3O)CC1)c1ccc(Cl)cc1"
parameter = "viability, T/C"
endpoint_unit = "%"
result_number = 88.1


Please look at the following compound next.
Need viability, T/C of C=CCn1c(=O)c2cnc(Nc3ccc(N4CCN(C)CC4)cc3)nc2n1-c1cccc(C(C)(C)O)n1 + CCN1CCN(Cc2ccc(Nc3ncc(F)c(-c4cc(F)c5nc(C)n(C(C)C)c5c4)n3)nc2)CC1 , thanks.
26.3

====

# Tested on: PC-3 multi-cell spheroids, viability
# ASSAY TEXT: Anticancer human tumor PC-3 cell line growth inhibition [IpAb];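 note: spheroids exposed to compounds for 7 days before readout; 100% = DMSO vehicle control wells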
# EXPERIMENTAL CONDITIONS: second compound 0.1 µM; first compound 0.0949 µM; active compounds read low
Define the label as condition met when viability, T/C is strictly less than 60% and as condition not met in all remaining cases.

[[record]]
compound = "CC(=O)c1c(C)c2cnc(Nc3ccc(N4CCNCC4)cn3)nc2n(C2CCCC2)c1=O + CCN1CCN(Cc2ccc(Nc3ncc(F)c(-c4cc(F)c5nc(C)n(C(C)C)c5c4)n3)nc2)CC1"
class = "condition met"

[[record]]
compound = "CC(=O)c1c(C)c2cnc(Nc3ccc(N4CCNCC4)cn3)nc2n(C2CCCC2)c1=O + CC(C)NCC(C(=O)N1CCN(c2ncnc3c2C(C)CC3O)CC1)c1ccc(Cl)cc1"
class = "condition met"

[[record]]
compound = "Cn1cnc2c(F)c(Nc3ccc(Br)cc3Cl)c(C(=O)NOCCO)cc21 + CC(C)NCC(C(=O)N1CCN(c2ncnc3c2C(C)CC3O)CC1)c1ccc(Cl)cc1"
class = "condition not met"

[[record]]
compound = "CC(C)(C)c1cnc(CSc2cnc(NC(=O)C3CCNCC3)s2)o1 + CCN1CCN(Cc2ccc(Nc3ncc(F)c(-c4cc(F)c5nc(C)n(C(C)C)c5c4)n3)nc2)CC1"
class = "condition met"


Lab note: next compound to report on.
Please indicate whether the reported viability, T/C of CC(C)(C)c1cnc(CSc2cnc(NC(=O)C3CCNCC3)s2)o1 + CC(C)NCC(C(=O)N1CCN(c2ncnc3c2C(C)CC3O)CC1)c1ccc(Cl)cc1 is strictly below 60%.
condition not met

====

# System: PC-3 multi-cell spheroids, viability
# ASSAY TEXT: Anticancer human tumor PC-3 cell line growth inhibition [IpAb];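 note: spheroids exposed to compounds for 7 days before readout; 100% = DMSO vehicle control wells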
# EXPERIMENTAL CONDITIONS: second compound 0.1 µM; first compound 1 µM; active compounds read low
Lab note: anything with viability, T/C below 40% is marked t; values at 40% or higher are marked f.

[[record]]
compound = "Cc1nc(NC(=O)N2CCCC2C(N)=O)sc1-c1ccnc(C(C)(C)C(F)(F)F)c1 (stereo unspecified) + CCN1CCN(Cc2ccc(Nc3ncc(F)c(-c4cc(F)c5nc(C)n(C(C)C)c5c4)n3)nc2)CC1"
class = "f"

[[record]]
compound = "CCCS(=O)(=O)Nc1ccc(F)c(C(=O)c2c[nH]c3ncc(-c4ccc(Cl)cc4)cc23)c1F + CCN1CCN(Cc2ccc(Nc3ncc(F)c(-c4cc(F)c5nc(C)n(C(C)C)c5c4)n3)nc2)CC1"
class = "f"

[[record]]
compound = "CCCS(=O)(=O)Nc1ccc(F)c(C(=O)c2c[nH]c3ncc(-c4ccc(Cl)cc4)cc23)c1F + CC(C)NCC(C(=O)N1CCN(c2ncnc3c2C(C)CC3O)CC1)c1ccc(Cl)cc1"
class = "f"

[[record]]
compound = "Cn1ncc(Cl)c1-c1cc(C(=O)NC(CN)Cc2cccc(F)c2)sc1Cl (stereo unspecified) + CCN1CCN(Cc2ccc(Nc3ncc(F)c(-c4cc(F)c5nc(C)n(C(C)C)c5c4)n3)nc2)CC1"
class = "t"

[[record]]
compound = "C=CCn1c(=O)c2cnc(Nc3ccc(N4CCN(C)CC4)cc3)nc2n1-c1cccc(C(C)(C)O)n1 + CCN1CCN(Cc2ccc(Nc3ncc(F)c(-c4cc(F)c5nc(C)n(C(C)C)c5c4)n3)nc2)CC1"
class = "f"


hey, is viability, T/C for COc1c(OCCCN2CCOCC2)ccc2c3n(c(=NC(=O)c4cnc(N)nc4)nc12)CCN3 + CC(C)NCC(C(=O)N1CCN(c2ncnc3c2C(C)CC3O)CC1)c1ccc(Cl)cc1 lower than 40% or not?
t

====

viability, T/C for assorted molecules
# Test system: PC-3 multi-cell spheroids, viability
# ASSAY TEXT: Anticancer human tumor PC-3 cell line growth inhibition [IpAb];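 note: spheroids exposed to compounds for 7 days before readout; 100% = DMSO vehicle control wells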
# EXPERIMENTAL CONDITIONS: second compound 0.1 µM; first compound 3.16 µM; active compounds read low

[[record]]
molecule = "CC1(C)CCC(CN2CCN(c3ccc(C(=O)NS(=O)(=O)c4ccc(NCC5CCOCC5)c([N+](=O)[O-])c4)c(Oc4cnc5[nH]ccc5c4)c3)CC2)=C(c2ccc(Cl)cc2)C1 + CC(C)NCC(C(=O)N1CCN(c2ncnc3c2C(C)CC3O)CC1)c1ccc(Cl)cc1"
result = "69%"

[[record]]
molecule = "C=CCn1c(=O)c2cnc(Nc3ccc(N4CCN(C)CC4)cc3)nc2n1-c1cccc(C(C)(C)O)n1 + CC(C)NCC(C(=O)N1CCN(c2ncnc3c2C(C)CC3O)CC1)c1ccc(Cl)cc1"
result = "19.6%"

[[record]]
molecule = "Cn1nccc1Nc1nccc(-c2ccn(C(CO)c3ccc(Cl)c(F)c3)c(=O)c2)n1 (centres undefined) + CCN1CCN(Cc2ccc(Nc3ncc(F)c(-c4cc(F)c5nc(C)n(C(C)C)c5c4)n3)nc2)CC1"
result = "87.7%"


Let us move to another entry and its viability, T/C.
May I ask what viability, T/C has been recorded for Cc1nc(NC(=O)N2CCCC2C(N)=O)sc1-c1ccnc(C(C)(C)C(F)(F)F)c1 (centres undefined) + CCN1CCN(Cc2ccc(Nc3ncc(F)c(-c4cc(F)c5nc(C)n(C(C)C)c5c4)n3)nc2)CC1 ?
32.9%

src = PubChem BioAssay AID2060327
